biological target: Coelenterazine h 2-monooxygenase (Renilla reniformis) (UniProt P27652); test: qHTS Assay for Inhibitors of Sea Pansy Luciferase from the GSK Published Protein Kinase Inhibitor Set; details: purified Renilla luciferase, luminescence; series mostly up to 57.5 µM
Sequence (P27652 whole entry, looked up): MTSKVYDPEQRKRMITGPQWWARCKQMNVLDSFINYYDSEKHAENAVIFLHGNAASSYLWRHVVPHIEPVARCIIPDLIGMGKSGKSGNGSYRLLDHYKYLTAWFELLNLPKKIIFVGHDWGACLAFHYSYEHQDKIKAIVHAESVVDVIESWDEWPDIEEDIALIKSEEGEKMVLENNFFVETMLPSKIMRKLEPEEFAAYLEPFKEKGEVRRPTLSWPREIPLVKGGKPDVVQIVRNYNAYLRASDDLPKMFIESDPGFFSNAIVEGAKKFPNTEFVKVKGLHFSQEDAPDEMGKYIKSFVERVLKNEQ
Results filed as inconclusive are left out. Active and inactive are the calls of the source. Calls follow the shape of the dose curve; as a rule, active = well fitted inhibition curve with a large enough effect; inconclusive = small, poorly fitted or top-dose-only effect; inactive = no such curve, though single readings can be large or run the other way.
Can you answer with just one of these options? active, inactive

1. O=C1Nc2ccc(C(=O)c3ccco3)cc2/C1=C/c1cc(Cl)c(O)c(Cl)c1 : active
2. CS(=O)(=O)Nc1ccc(-c2ccc3c(NC(=O)C4CC4)n[nH]c3c2)cc1 : inactive
3. COc1cc2ncn(-c3cc(OC(C)c4ccccc4Cl)c(C(N)=O)s3)c2cc1OC (stereo unspecified) : inactive
4. COC(=O)Nc1nc2ccc(Oc3ccc(NC(=O)Nc4cccc(Br)c4)cc3)cc2[nH]1 : inactive
5. CCCN(CCS(C)(=O)=O)Cc1ccc(-c2ccc3ncnc(Nc4ccc(OCc5cccc(F)c5)c(Cl)c4)c3c2)o1 : inactive
6. Oc1[nH]c2ccccc2c1C=Nc1ccc(-n2cncn2)cc1 : inactive
7. Cc1ccc(-c2cc3c(NC(=O)C4CC4)ncnc3o2)cc1 : inactive
8. CCOc1ccc2c(-c3ccnc(Nc4cc(OC)cc(C(F)(F)F)c4)n3)cnn2n1 : inactive
9. COc1c(C(N)=O)cc(-c2ccc(Cl)cc2)cc1-c1ccc(S(N)(=O)=O)cc1 : inactive
10. COC(=O)Nc1nc2ccc(Oc3ccc(NC(=O)Nc4cccc(Cl)c4)cc3)cc2[nH]1 : inactive

Which result was noted for this compound in the test: "NCc1ccc(-c2nc(-c3ccc(Cl)c(O)c3)c(-c3ccncc3)[nH]2)cc1"
inactive

Recorded test call requested for "Nc1nccc(-c2c(-c3ccc(F)cc3)ncn2C2CCNCC2)n1"
inactive

###

target: Coelenterazine h 2-monooxygenase (Renilla reniformis); assay: qHTS Assay for Inhibitors of Sea Pansy Luciferase from the GSK Published Protein Kinase Inhibitor Set; conditions: purified Renilla luciferase, luminescence; series mostly up to 57.5 µM
Records with an inconclusive call do not appear. Calls of active or inactive are those of the source. Calls follow the shape of the dose curve; as a rule, active = well fitted inhibition curve with a large enough effect; inconclusive = small, poorly fitted or top-dose-only effect; inactive = no such curve, though single readings can be large or run the other way.
ASSAY_READOUT: outcome

The cases that follow already have their outcome on record.
1. COc1ccc(COc2ccc(Cc3cnc(N)nc3N)cc2OC)cc1 : inactive
2. CC1=C(C(=O)Nc2ccc3[nH]ncc3c2)C(c2ccc(Cl)c(Cl)c2)CC(=O)N1 (stereo unspecified) : inactive
3. Nc1nccc(-c2c(-c3ccc(F)cc3)ncn2CCCN2CCOCC2)n1 : inactive
4. CC(C)c1ccc(Nc2nccc(-c3cnn4ncccc34)n2)cc1 : inactive
5. Nc1nc(-c2ccc(F)cc2)c(-c2ccc3ncccc3n2)s1 : inactive
6. CN1CCC(C(=O)Nc2n[nH]c3nc(-c4ccc(O)cc4)c(Br)cc23)CC1 : inactive
7. N#Cc1c(NC(=O)CN2CCOCC2)sc2c1CCCC2 : inactive
8. COc1cc(Nc2nccc(-c3cnn4ncccc34)n2)cc(OC)c1 : inactive
9. NC(=O)c1ccc2c(-c3ccnc(NCCCO)n3)c(-c3ccc(F)cc3)nn2c1 : inactive
10. CNC(=O)c1cc(-c2ccc(F)cc2)cc(-c2ccc(S(=O)(=O)N3CCCC3)cc2)c1N : inactive

So what's the measured outcome for this one? "COc1cccc(-n2cnc3c(NN=Cc4ccncc4)ncnc32)c1"
inactive

If you can, please state the reported outcome value of "COc1cccc(-n2ncc3c(NN=Cc4ccc(S(C)(=O)=O)cc4)ncnc32)c1" .
inactive

For the molecule shown here, "CC(C)COC(=O)c1ccc2[nH]c(O)c(C=Nc3ccc(S(N)(=O)=O)cc3)c2c1" , give the reported outcome.
inactive

Return reported outcome; argument: "Cc1ccc2c(-c3ccnc(Nc4ccc5c(c4)OCCO5)n3)c(-c3ccc(C(F)(F)F)cc3)nn2n1"
inactive

Field request: outcome | item: "COc1cc(C)c(N(C)C(=O)CN(C)C)cc1Nc1nc(Nc2cccc(F)c2C(N)=O)c2cc[nH]c2n1"
inactive

# query: outcome of entry "Cc1ccc(NC(=O)CC2CC2)cc1-c1ccc(C(=O)NCC2CC2)cc1"
inactive

Consider the molecule shown here: CC1=C(C(=O)Nc2ccc3n[nH]c(C)c3c2)C(c2ccc(C(F)(F)F)cc2)CC(=O)N1 (stereo unspecified) What is its recorded outcome?
inactive

Could you tell me which outcome is on file for COc1ccc2cc(-c3c(-c4ccncc4)nc(-c4ccc(S(C)=O)cc4)n3C)ccc2c1 (stereo unspecified) ?
inactive

Could you tell me which outcome is on file for "CCn1c(-c2nonc2N)nc2cncc(C(=O)NCCNC)c21" ?
inactive

I have this molecule here, "CCCNc1cccc(-n2ncc3c(NN=Cc4ccncc4)ncnc32)c1" , and I need its recorded outcome.
inactive

Which measured outcome value corresponds to "CS(=O)(=O)CCNCc1nc(-c2ccc3ncnc(Nc4ccc(F)c(Cl)c4)c3c2)cs1" ?
inactive
